Reference source: ChEMBL document CHEMBL1201862

Record form. Attribute: GI50. Fill in for each entry.
Tested on: SNB-75
assay_info: NCI tumour cell line growth inhibition, 48 h
Calls of active or inactive are those of the source. Rule as the data show it: active = GI50 up to about 1.1 µM and inactive = higher.

// known answers, use as guide
molecule	GI50
Cc1ccc(NC(=S)N/N=C2\C(=O)Nc3ccccc32)cc1	> 100 µM (inactive)
CC(=O)O[C@H]1CC[C@]2(C=O)[C@H]3CC[C@]4(C)[C@@H](C5=CC(=O)OC5)CC[C@]4(O)[C@@H]3CC[C@]2(O)C1 [STROPHANTHIDIN ACETATE]	0.601 µM (active)

List the reported GI50 of each molecule below.
1. CSc1c(C#N)c(S)[nH]c(=O)c1C#N
2. O=C(/C=C1/Nc2ccc([N+](=O)[O-])cc2N/C1=C/C(=O)c1ccc(Cl)cc1)c1ccccc1
3. CCC(=O)N(c1ccccc1)C(C)CN1CCC(O)(c2ccccc2)CC1 (centres undefined)
4. COc1ccc2c(c1)-c1nn(CCN(C)C)c3ccc(C(=O)NCCCN(C)CCCNC(=O)c4ccc5c6c(c7cc(OC)ccc7nc46)NN5CCN(C)C)c(c13)N2

1: 32.1 µM (inactive); 2: 19.9 µM (inactive); 3: > 100 µM (inactive); 4: 0.114 µM (active)

List the reported GI50 of each molecule below.
1. Cc1ccccc1C(C#N)C(=O)C(=O)Nc1nc([N+](=O)[O-])cs1 (centres undefined)
2. Cc1ccc2c(=O)cc(Cc3csc4ccccc34)[nH]c2n1
3. C=CCC1(O)c2cccc(O)c2C(=O)c2cccc(O)c21 (centres undefined)
4. COc1cc(OC)cc(OCc2ccc3nc(-c4ccccc4)c(Cl)nc3c2)c1

["> 100 µM (inactive)", "16.6 µM (inactive)", "13.2 µM (inactive)", "15.8 µM (inactive)"]

* * *

Tested on: UACC-257
assay_info: NCI tumour cell line growth inhibition, 48 h
Calls of active or inactive are those of the source. Cut-off read from the data, not from the text of the source: active = GI50 up to about 1.1 µM and inactive = higher.
Give one outcome, nothing more. List: Y (active), N (inactive)

compound	class
CC(C)C(Sc1nc(-c2ccccc2)c(-c2ccccc2)[nH]1)C(=O)NNC(=S)Nc1ccccc1 (centres undefined)	N
Cc1cc(C)cc(-n2c3nc(=O)n(C)c(=O)c-3nc3ccccc32)c1	N
C=CCOC(=O)N1c2ccc(O)cc2[C@@]23O[C@@]24[C@@H]1C#C/C=C\C#C[C@]3(O)C(=O)C[C@@H]4C	N
Cc1ccnc2c1ccc1nc3ccccc3n12	N
COc1ccc(-c2cc(=O)c3c(O)cc(O)cc3o2)cc1OC	N
O=C(Nc1ccccc1)c1cc2c(cc1Cl)Sc1nccn1S2(=O)=O	N
OCCN(CCO)c1ccc2c(-c3ccccc3)cc(N(CCO)CCO)nc2n1	N
C[C@@H]1C[C@@]2(O[C@@H]2C)C(=O)O[C@@H]2CCN3CC=C(COC(=O)[C@]1(C)O)[C@H]23	N

Each compound tested received a call. Report the one for CC(=O)O[C@H]1CC[C@]2(C=O)[C@H]3CC[C@]4(C)[C@@H](C5=CC(=O)OC5)CC[C@]4(O)[C@@H]3CC[C@]2(O)C1 [STROPHANTHIDIN ACETATE] .
Y

* * *

Tested on: SF-295
assay_info: NCI tumour cell line growth inhibition, 48 h
Active and inactive are the calls of the source. Cut-off read from the data, not from the text of the source: active = GI50 up to about 1.1 µM and inactive = higher. Where a SMILES comes first, the peptide text is derived from it. The star is where a group is joined. Cbz = O=C(OCc1ccccc1)*
Give one outcome, nothing more. List: TRUE (active), FALSE (inactive)

For orientation, consider the following solved cases.
molecule	class
COc1cc(S(=O)(=O)Nc2ccc(-c3csc(N4C(=O)CSC4c4ccccc4O)n3)cc2)ccc1Cl (stereo not given)	FALSE
CC(C)(C)C1=NN=C2c3ccccc3C(=O)C21 (stereo not given)	FALSE
O=C1Nc2cccc(Cl)c2/C1=C\c1c(-c2ccccc2)nc2n1CCS2	FALSE
CC1=C(C(=O)Nc2cc(=O)n(C)c(=O)n2C)C(c2ccc([N+](=O)[O-])cc2)C(C(=O)Nc2cc(=O)n(C)c(=O)n2C)=C(C)N1	FALSE
[O-][S+]1c2ccccc2SCSc2ccccc21	FALSE
CSc1scc2c1/C(=N/NC(N)=O)CCC2	FALSE
O=C(CSc1nnc(-c2ccc(/N=C\c3ccc(Cl)cc3)cc2)o1)Nc1cccc([N+](=O)[O-])c1	FALSE
O=c1oc2c(Cl)cc(Cl)cc2cc1-c1cn2c(n1)sc1ccccc12	FALSE
Cc1cc(O)c2c(=O)c3ccccc3[nH]c2c1	FALSE
CCOC(=O)c1nc2cc(C(F)(F)F)ccc2nc1Nc1cc(OC)c(OC)c(OC)c1	FALSE

Each molecule tested received a call. Report the one for `O=C(OCc1ccccc1)n1cccc1` .
FALSE

Each molecule tested received a call. Report the one for `Cc1ccc(C(=O)/C=C2/Nc3ccc([N+](=O)[O-])cc3N/C2=C/C(=O)c2ccc(C)cc2)cc1` .
FALSE

Each molecule tested received a call. Report the one for O=C1N(c2ccc(Cl)cc2)C(=O)C2(SC=NN2Cc2ccccc2)N1c1ccc(Cl)cc1 (stereo not given) .
FALSE

Each molecule tested received a call. Report the one for `CC(C)c1ccc(NC(=S)NC(=O)c2ccccc2)cc1` .
FALSE

Each molecule tested received a call. Report the one for O=C1CC(c2ccccc2)n2cccc21 (stereo not given) .
FALSE

Each molecule tested received a call. Report the one for CCOC(=O)CCC(NC(=O)C(Cc1ccccc1)NC(=O)OCc1ccccc1)C(=O)OCC (stereo not drawn) (Cbz-Phe-Glu(OEt)-OEt; configuration not given here) .
FALSE

Each molecule tested received a call. Report the one for Cc1ccc(S(=O)(=O)OC2CN3CCC2CC3)cc1 (stereo not given) .
FALSE

Each molecule tested received a call. Report the one for `CC(C)/C(Cl)=N/OC(NC(=O)Nc1ccc(Cl)c(Cl)c1)(C(F)(F)F)C(F)(F)F` .
FALSE

Each molecule tested received a call. Report the one for Fc1ccc(C(OCCN2CCC3CCC(C2)N3C/C=C/c2ccco2)c2ccc(F)cc2)cc1 (stereo not given) .
FALSE

Each molecule tested received a call. Report the one for CCC12C[N+]3([O-])CCc4c([nH]c5ccccc45)C(C(=O)OC)(c4cc5c(cc4OC)N(C)C4C(O)(C(=O)OC)C(OC(C)=O)C6(CC)C=CCN7CCC54C76)CC(C3)C1O2 (stereo not given) .
TRUE
